# target_or_test_system: KRAS protein containing G12D mutation (Homo sapiens (Human), UniProt P01116, G12D)
# Sequence (P01116 other isoform, or with tags, fused parts or gaps G12D (already in the parent)): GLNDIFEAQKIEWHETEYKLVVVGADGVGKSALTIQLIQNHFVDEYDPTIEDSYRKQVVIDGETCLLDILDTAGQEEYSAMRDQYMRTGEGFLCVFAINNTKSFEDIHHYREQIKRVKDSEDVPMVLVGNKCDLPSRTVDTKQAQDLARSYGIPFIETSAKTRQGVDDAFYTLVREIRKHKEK
# procedure_text: SOS-catalyzed nucleotide exchange assay (GNE), TR-FRET
# Assay type: biochemical
# condition_notes: biotinylated KRAS G12D, SOS and GTP, 60-minute incubation
Structures can show the parent of a compound that is named as a salt.
# IC50 per entry
Give the quantity in nM, number only.

>>> observed_value("Cc1cc2[nH]nc(C)c2c(-c2c(F)cc3c(N4CC5CCC(C4)N5)nc(OC[C@@]45CCCN4C[C@H](F)C5)nc3c2F)c1OC(F)(F)F (single isomer, unassigned) [Ex. 232a]")
932
>>> observed_value("CN(C)CC1(COc2nc(N3CC4C[C@@H](O)[C@@](C)(C3)N4)c3cc(Cl)c(-c4cc(O)cc5ccccc45)c(F)c3n2)CC1 (stereo in doubt) [Example 43]")
74.3
>>> observed_value("C[C@]12CCC(CN(c3nc(OC[C@H]4CC[C@@]5(CO)CCCN45)nc4c(F)c(-c5cc(O)cc6cccc(Cl)c56)c(F)cc34)C1)N2 [243a]")
346

Challenge: I have this compound here, C[C@]12CCC(CN(c3nc(OC[C@]4(CNCC(F)F)CC4(F)F)nc4c(F)c(-c5cc(O)cc6cccc(Cl)c56)c(F)cc34)C1)N2 (single isomer, unassigned) [Ex. 221] , and I need its recorded IC50.
Response given: 1110

Challenge: I have this compound here, CN(C)CC1(COc2nc(N3C[C@H]4CC[C@@H](C3)N4)c3cc(Cl)c(-c4cccc5cccc(C#N)c45)c(F)c3n2)CC1 [Example 60] , and I need its recorded IC50.
Response given: 1590

Challenge: I have this compound here, CN(C)CC1(COc2nc(N3CC4CCC(C3)N4)c3cc(Cl)c(-c4cc(O)ccc4[Si](C)(C)C)c(F)c3n2)CC1 [Example 45] , and I need its recorded IC50.
Response given: 376

Challenge: I have this compound here, C[C@]12CCC(CN(c3nc(OC[C@@]45CCCN4C[C@H](F)C5)nc4c(F)c(-c5cc(O)cn6ncc(Cl)c56)c(F)cc34)C1)N2 (single isomer, unassigned) [Ex. 230a, TFA] , and I need its recorded IC50.
Response given: 30.9

Challenge: I have this compound here, C#Cc1cccc2nc(N)cc(-c3c(F)cc4c(N5CC6CCC(C5)N6)nc(OC[C@@]56CCCN5C[C@H](F)C6)nc4c3F)c12 (single isomer, unassigned) [Ex. 203a] , and I need its recorded IC50.
Response given: 380

Challenge: I have this compound here, C#Cc1cccc2cc(O)cc(-c3c(F)cc4c(N5CC6(C)CCC(C)(C5)N6)nc(OC[C@@]56CCCN5C[C@H](F)C6)nc4c3F)c12 [Example 124] , and I need its recorded IC50.
Response given: 1.21

Challenge: I have this compound here, Cc1cc(N)nc(-c2c(Cl)cc3c(N4CC5CCC(C4)N5)nc(OC[C@@]45CCCN4C[C@H](F)C5)nc3c2F)c1CC(F)(F)F (single isomer, unassigned) [Ex. 157b] , and I need its recorded IC50.
Response given: 2940

Challenge: I have this compound here, Cc1cc2[nH]nc(C#N)c2c(-c2c(F)cc3c(N4C[C@H]5CC[C@@H](C4)N5)nc(OC[C@@]45CCCN4C[C@H](F)C5)nc3c2F)c1C(F)F [compound 254] , and I need its recorded IC50.
Response given: 0.77

###

# target_or_test_system: KRAS protein containing G12D mutation (Homo sapiens (Human), UniProt P01116, G12D)
# procedure_text: SOS-catalyzed nucleotide exchange assay (GNE), TR-FRET
# Type: biochemical
# condition_notes: biotinylated KRAS G12D, SOS and GTP, 60-minute incubation
Structures can show the parent of a compound that is named as a salt.
measured_endpoint: IC50 (nM)
Give the quantity in nM, number only.

Recorded results for 5 molecules are shown here.
>>> observed_value("C#Cc1cccc2cc(O)cc(-c3c(F)cc4c(N5C[C@H]6CC[C@@](C)(C5)N6)nc(OC)nc4c3F)c12 (single isomer, unassigned) [Ex. 171b, TFA]")
3470
>>> observed_value("C#Cc1cccc2cc(O)cc(-c3c(F)cc4c(N5C[C@H]6CC[C@@](C)(C5)N6)nc(OCC5(CN6CC[C@@H](F)C6)CC5)nc4c3F)c12 (single isomer, unassigned) [103b, TFA]")
458
>>> observed_value("Oc1c(F)cc(Cl)c(Cl)c1-c1c(Cl)cc2c(N3C[C@H]4CC[C@@H](C3)N4)nc(OC[C@@]34CCCN3C[C@H](F)C4)nc2c1F")
2620
>>> observed_value("C[C@]12CC[C@H](CN(c3nc(OC[C@@]45CCCN4C[C@H](F)C5)nc4c(F)c(-c5cc(O)cc6cccc(Cl)c56)c(F)cc34)C1)N2")
0.565
>>> observed_value("Cc1cc2[nH]ncc2c(-c2c(F)cc3c(N4C[C@H]5CC[C@@](C)(C4)N5)nc(OC[C@@H]4C[C@@H](F)CN4C)nc3c2F)c1C(F)(F)F")
173

Challenge: I have this molecule here, C#Cc1c(F)ccc2ccc(F)c(-c3c(F)cc4c(N5CC6CC[C@@](C)(C5)N6)nc(OC[C@@]56CCCN5C[C@H](F)C6)nc4c3F)c12 (single isomer, unassigned) [246a] , and I need its recorded IC50.
Response given: 41.3

Challenge: I have this molecule here, C[C@]12CC[C@H](CN(c3nc(OC[C@@H]4CCCN4CCO)nc4c(F)c(-c5cc(O)cc6ccccc56)c(F)cc34)C1)N2 , and I need its recorded IC50.
Response given: 69.8

Challenge: I have this molecule here, Cc1cc2[nH]ncc2c(C2Cc3nc(OC[C@]4(CN(C)C)CC4(F)F)nc(N4C[C@H]5CC[C@@](C)(C4)N5)c3C(=O)O2)c1C(F)(F)F (single isomer, unassigned) [Ex. 96a] , and I need its recorded IC50.
Response given: 1280

Challenge: I have this molecule here, C[C@]12CC[C@H](CN(c3nc(OCC4(CN5CCCC(O)(C(F)(F)F)C5)CC4)nc4c(F)c(-c5cc(O)cc6cccc(Cl)c56)c(F)cc34)C1)N2 (mixture of isomers) [Ex. 206] , and I need its recorded IC50.
Response given: 1340

Challenge: I have this molecule here, CN(C)CC1(COc2nc(N3CC4CC[C@@](C)(C3)N4)c3cc(Cl)c(-c4cc(O)cc5ccccc45)c(F)c3n2)CC1 , and I need its recorded IC50.
Response given: 27.3

Challenge: I have this molecule here, Cc1nc(N)c(F)c(-c2c(F)cc3c(N4CC5CCC(C4)N5)nc(OC[C@@]45CCCN4C[C@H](F)C5)nc3c2F)c1C(F)(F)F (single isomer, unassigned) [Ex. 151a] , and I need its recorded IC50.
Response given: 1930

###

# target_or_test_system: KRAS protein containing G12D mutation (Homo sapiens (Human), UniProt P01116, G12D)
# procedure_text: SOS-catalyzed nucleotide exchange assay (GNE), TR-FRET
# Format: biochemical
# condition_notes: biotinylated KRAS G12D, SOS and GTP, 60-minute incubation
# IC50 per entry
Give the quantity in nM, number only.

Recorded results for 4 molecules are shown here.
>>> observed_value("CN(C)CC1(COc2nc(N3C[C@H]4CC[C@@](C)(C3)N4)c3cc(F)c(-c4cc(O)cc5ccccc45)c(F)c3n2)CC1C(=O)O (some centres unmarked) [Ex. 107]")
25.4
>>> observed_value("Cc1cc2[nH]ncc2c(-c2c(F)cc3c(N4C[C@H]5CC[C@@](C)(C4)N5)nc(OCC4(CN5CC[C@@H](F)C5)CC4)nc3c2F)c1C(F)(F)F (single isomer, unassigned) [Ex 80a]")
31.8
>>> observed_value("CN(C)C[C@@]1(COc2nc(N3C[C@]4(C)CC[C@H]3CN4)c3cc(F)c(-c4cc(O)cc5ccccc45)c(F)c3n2)CC1(F)F [Ex 83]")
2.72
>>> observed_value("Cc1cccc2cc(O)cc(-c3c(F)cc4c(N5CC6CC[C@@](C)(C5)N6)nc(OC[C@@]56CCCN5C[C@H](F)C6)nc4c3F)c12 (single isomer, unassigned) [Ex. 179b]")
727

Challenge: I have this molecule here, Oc1cc(Cl)c(C(F)(F)F)cc1-c1c(F)cc2c(N3CC4CCC(C3)N4)nc(OC[C@@]34CCCN3C[C@H](F)C4)nc2c1F (single isomer, unassigned) [Ex. 256] , and I need its recorded IC50.
Response given: 246

###

# target_or_test_system: KRAS protein containing G12D mutation (Homo sapiens (Human), UniProt P01116, G12D)
# procedure_text: SOS-catalyzed nucleotide exchange assay (GNE), TR-FRET
# Type: biochemical
# condition_notes: biotinylated KRAS G12D, SOS and GTP, 60-minute incubation
measured_endpoint: IC50 (nM)
Give the quantity in nM, number only.

>>> observed_value("Cc1cc(N)c(F)c(-c2c(F)cc3c(N4CC5CCC(C4)N5)nc(OC[C@@]45CCCN4C[C@H](F)C5)nc3c2F)c1C(F)(F)F (single isomer, unassigned) [Ex. 146a]")
1.56

Challenge: I have this molecule here, C[C@]12CC[C@H](CN(c3nc(OC[C@@]45CCCN4C[C@H](F)C5)nc4c(F)c(-c5c(F)cc(F)c6oc(N)nc56)c(Cl)cc34)C1)N2 (single isomer, unassigned) [Ex. 170b] , and I need its recorded IC50.
Response given: 874

Challenge: I have this molecule here, COC1CC2CN(c3nc(OCC4(CN(C)C)CC4)nc4c(F)c(-c5cc(O)cc6ccccc56)c(F)cc34)CC1N2 (stereo not drawn) [Example 24] , and I need its recorded IC50.
Response given: 280
